PROTOCOL_NOTES: folding stability dG unfold from trypsin proteolysis; higher = more stable
MEASURED_ENDPOINT: folding stability dG unfold (kcal/mol)
Form entry: value (kcal/mol) — number only.

Recorded folding stability dG unfold, per entry:
SAGGSAGGSAPKPIEITFPAKSLEEAKIAAEEIKRAFEELEDVKVEVEYDPETGTVTVRVYGSAGGSAGGSA [r18_368_TrMRF] | 2.88
SAGGSAGGSKLKIPIIRKFKPDEPLPTAEDVKAILEELGLDIKEVKVTYFPEYGYAIAEVEVSSAGGSAGGS [r12_1052_TrMRF] | 1.57
SAGGSAGGSDPTAPVITTVPFPSGAVLTITTYPDSVTITYPSPGTTYTVPASAPIPITYQPALSAGGSAGGS [r12_227_JUSTAS] | 0.674
SAGGSAGGSAGFKVPPGWKIVNTYRSPESGYPTAILRDPGDNKPLIFDFDNGKIMPAKDISAGGSAGGSAGG [r11_268_TrROS] | 0.291
SAGGSAGGMPPVSLPETPVTITDPATGKPRLVTVLAAAPDGTLTVRFPDGSEVTVAGEPLLELESAGGSAGG [r6_435_JUSTAS] | 0.446
SAGGKDGKPKPKVEPEITVQFYIPLPPDDLTPEEIAQWMSDHFGFPFTNVEIERHPEDNYYRVSFTIRSAGG [r13_457_TrROS] | 1.86

Retrieve folding stability dG unfold measured for SAGGWQKVEFMIEIPGGGSLDQAKDEVEEFADYLRKKAGFKDVDVDVQVDPDGWVYVMVEIEVPPNASAGGS [r8_3_TrROS] and print it.
1.06

Retrieve folding stability dG unfold measured for SAGATATPPAVRVATARLPLPFGTGTEVTVTTYSDGSATVTARFPDGVVATAFVSPDGSAVVTVAPAGGSAG [r5_168_TrMRF] and print it.
0.992

Retrieve folding stability dG unfold measured for SAGGSWTIDIDPEKVKEVEHKRNPNGMNEHRLELPNKNGKKREVKIPMGMKSPEDALDEIRELLGKSAGGSA [r2_347_TrROS] and print it.
0.167

Retrieve folding stability dG unfold measured for SAEEELRKALENMSDEELEALLRAAAPPPKTVTIRLSEEELEKLAQELADEYNVTVTVEVDGKTLTLTLSAG [r14_7_TrROS_Hall] and print it.
1.69
